- system_name: Cat L (UniProt P07711)
- protocol_text: Cathepsin enzyme inhibition assay (fluorogenic peptide substrate Z-Val-Val-Arg-AMC), Cathepsin L
- Type: biochemical, human and mouse
- experimental_conditions: enzyme 1 nM, substrate 20 μM, pH 6.5; read-out: CatL IC50
property_measured: IC50 (µM)

Some molecules with recorded IC50:
What value of IC50 has been reported for the following molecule? Cc1cc(N2C[C@H](S(=O)(=O)c3ccccc3C(F)(F)F)C[C@H]2C(=O)NC2(C#N)CC2)n(Cc2ccccc2)n1 40.8

Note, next up: N#CC1(NC(=O)[C@@H]2C[C@@H](S(=O)(=O)c3ccccc3Cl)CN2S(=O)(=O)c2ccc(-c3ccccc3)cc2)CC1 5.24

P = Cc1cc(N2C[C@H](S(=O)(=O)c3ccccc3Cl)C[C@H]2C(=O)NC2(C#N)CC2)n(CCCc2ccccc2)n1
Q = N#CC1(NC(=O)[C@@H]2C[C@@H](S(=O)(=O)c3ccc(OCC(F)(F)F)cc3C(F)(F)F)CN2C(=O)C2(CO)CC2)CC1
Could you kindly indicate whether P or Q has the higher IC50 value? Select an item and report its label. Q

* * *

- system_name: UniProt:P25774
- protocol_text: Cathepsin enzyme inhibition assay (fluorogenic peptide substrate Z-Val-Val-Arg-AMC), Cathepsin S
- Assay type: biochemical, human and mouse
- experimental_conditions: enzyme 1 nM, substrate 20 μM, pH 6.5; read-out: CatS IC50
property_measured: IC50 (nM)

Consider the molecule CC(C)(C)OC(=O)N1C[C@H](S(=O)(=O)c2ccc(OCCN3CCCCC3)cc2Cl)C[C@H]1C(=O)NC1(C#N)CC1 and give its measured IC50. 7.8

a = C[C@H](Oc1ccc(S(=O)(=O)[C@@H]2C[C@@H](C(=O)NC3(C#N)CC3)N(C(=O)C3CC3)C2)c(Cl)c1)C(F)(F)F
b = N#CC1(NC(=O)[C@@H]2C[C@@H](S(=O)(=O)c3ccc(OCC(F)(F)F)cc3C(F)(F)F)CN2c2nnc(C(F)(F)F)s2)CC1
c = CC(C)C[C@]1(C(=O)NC2(C#N)CC2)C[C@H](S(C)(=O)=O)[C@@H](c2ccc(F)cc2)N1C(=O)OC(C)(C)C
Ordering criterion: IC50; begin with the maximum. Return the labels ranked in the requested order, please. c, a, b

* * *

- system_name: UniProt P07711
- protocol_text: Cathepsin enzyme inhibition assay (fluorogenic peptide substrate Z-Val-Val-Arg-AMC), Cathepsin L
- Type: biochemical, human and mouse
- experimental_conditions: enzyme 1 nM, substrate 20 μM, pH 6.5; read-out: CatL IC50
pIC50: −log10 of the molar value.
property_measured: pIC50

Given the entry N#CC1(NC(=O)[C@@H]2C[C@@H](S(=O)(=O)c3ccccc3C(F)(F)F)CN2C(=O)CC(F)(F)F)CC1 [Example 206] , report its measured pIC50. ≤ 4.60

Further cases:
Recorded pIC50 for C=CCN[C@@H](C(=O)N1C[C@H](S(=O)(=O)c2ccccc2OCC=C)C[C@H]1C(=O)NC1(C#N)CC1)c1ccc(Cl)cc1 [Example 455] , please? ≤ 4.60

Now this one: CC(C)CC(=O)N1C[C@H](S(=O)(=O)c2ccc(Cl)cc2Cl)C[C@H]1C(=O)NC1(C#N)CC1 [Example 228] 4.81

* * *

- system_name: Cat L (UniProt P07711)
- protocol_text: Cathepsin enzyme inhibition assay (fluorogenic peptide substrate Z-Val-Val-Arg-AMC), Cathepsin L
- Type: biochemical, human and mouse
- experimental_conditions: enzyme 1 nM, substrate 20 μM, pH 6.5; read-out: CatL IC50
property_measured: IC50 (µM)

I = Cc1csc(C2(C(=O)N3C[C@H](S(=O)(=O)c4ccccc4Cl)C[C@H]3C(=O)NC3(C#N)CC3)CC2)n1 [Example 413]
II = CCN1CCN(c2ccc(S(=O)(=O)[C@@H]3C[C@@H](C(=O)NC4(C#N)CC4)N(C(=O)C4(C(F)(F)F)CC4)C3)c(Cl)c2)CC1 [Example 141]
III = N#CCNC(=O)[C@@H]1C[C@@H](S(=O)(=O)c2ccccc2Cl)CN1C(=O)C1CCCCC1 [Example 60]
Put the above entries in order of falling IC50. Answer by listing the labels in the order asked for. III, II, I
(III: 12.8 µM, II: 3.46 µM, I: 1.1 µM)

* * *

- system_name: UniProt P25774
- protocol_text: Cathepsin enzyme inhibition assay (fluorogenic peptide substrate Z-Val-Val-Arg-AMC), Cathepsin S
- Type: biochemical, human and mouse
- experimental_conditions: enzyme 1 nM, substrate 20 μM, pH 6.5; read-out: CatS IC50
pIC50: −log10 of the molar value.
property_measured: pIC50

Example compounds with recorded pIC50:
Entry N#CCNC(=O)[C@@H]1C[C@@H](S(=O)(=O)c2ccccc2Cl)CN1C(=O)c1ccc(F)cc1 has what pIC50? 8.74

Entry to check: Cc1cc(N2C[C@H](S(=O)(=O)c3ccc(OCC(F)(F)F)cc3Cl)C[C@H]2C(=O)NC2(C#N)CC2)n(C2CCC2)n1 8.98

Further, for COCCN1C[C@H](S(=O)(=O)c2ccccc2C(F)(F)F)C[C@H]1C(=O)NC1(C#N)CC1 ? 7.22

And the next one, CC(C)(C)c1ccc(C2NC(C(=O)NC3(C#N)CC3)CC2S(=O)(=O)c2ccccc2)cc1 (centres unmarked) ? 5.21

Likewise for N#CC1(NC(=O)[C@@H]2C[C@@H](S(=O)(=O)c3ccccc3C(F)(F)F)CN2C(=O)c2ccc(F)cc2)CC1 ? 9.40

Do the same for N#CC1(NC(=O)[C@@H]2C[C@@H](S(=O)(=O)c3ccc(OCC(F)(F)F)cc3Cl)CN2C(=O)C2CC2(F)F)CC1 (some centres unmarked) please 9.48

Next record, please: N#CC1(NC(=O)C2C[C@@H](S(=O)(=O)c3ccc(OCC(F)(F)F)cc3Cl)CN2C(=O)C2(c3ccc(Cl)nc3)CC2)CC1 (stereo in doubt) 9.62

Another compound to look at: COCC(=O)N1C[C@H](S(=O)(=O)c2ccccc2Cl)C[C@H]1C(=O)NCC#N 8.92

N#CC1(NC(=O)[C@@H]2C[C@@H](S(=O)(=O)c3ccccc3Cl)CN2CCC(F)(F)F)CC1 , same question. 6.92

// next record N#CC1(NC(=O)[C@@H]2C[C@@H](S(=O)(=O)c3ccc(-n4ccnc4)cc3Cl)CN2C(=O)C2(c3ccc(Cl)cc3)CC2)CC1 10.10

P = N#CC1(NC(=O)[C@@H]2C[C@@H](S(=O)(=O)c3ccc(N4CCNCC4)cc3Cl)CN2C(=O)C2(C(F)(F)F)CC2)CC1
Q = N#CC1(NC(=O)[C@@H]2C[C@@H](S(=O)(=O)c3ccc(-n4cccn4)cc3Cl)CN2)CC1
R = Cc1cc(N2C[C@H](S(=O)(=O)CC3CC3)C[C@H]2C(=O)NC2(C#N)CC2)n(-c2ccc(C(F)(F)F)cc2)n1
Number of compounds to sort: 3. Sort criterion: pIC50, ascending. Answer by listing the labels in the order asked for. R, Q, P

* * *

- system_name: Cathepsin S (UniProt P25774)
- protocol_text: Cathepsin enzyme inhibition assay (fluorogenic peptide substrate Z-Val-Val-Arg-AMC), Cathepsin S
- Format: biochemical, human and mouse
- experimental_conditions: enzyme 1 nM, substrate 20 μM, pH 6.5; read-out: CatS IC50
property_measured: IC50 (µM)

Could you share what IC50 was measured for N#CC1(NC(=O)[C@@H]2C[C@@H](S(=O)(=O)c3ccc(OCC(F)(F)F)cc3Cl)CN2C(=O)C2(c3ccc4ccccc4c3)CC2)CC1 [Example 348] , tested on Cathepsin S (UniProt P25774)? 0.00017

a = Cc1cc(N2C[C@H](S(C)(=O)=O)C[C@H]2C(=O)NC2(C#N)CC2)n(Cc2ccccc2)n1 [Example 449]
b = C[C@H](Oc1ccc(S(=O)(=O)[C@@H]2C[C@H](C(=O)NC3(C#N)CC3)N(C(=O)C(C)(C)C)C2)c(Cl)c1)C(F)(F)F [Example 204]
Look at a and b . Which one has the lower recorded IC50 number? When you have decided, please share the label of that item. b

* * *

- system_name: UniProt P07711
- protocol_text: Cathepsin enzyme inhibition assay (fluorogenic peptide substrate Z-Val-Val-Arg-AMC), Cathepsin L
- Assay type: biochemical, human and mouse
- experimental_conditions: enzyme 1 nM, substrate 20 μM, pH 6.5; read-out: CatL IC50
Listing of entries alongside the reported IC50.

For the compound shown here, CN1CCN(c2ccc(S(=O)(=O)[C@@H]3C[C@@H](C(=O)NC4(C#N)CC4)N(C(=O)OC(C)(C)C)C3)c(C(F)(F)F)c2)CC1 [Example 8] , give the reported IC50. ≥ 25 µM

---
Quick check: IC50 of N#CC1(NC(=O)[C@@H]2C[C@@H](S(=O)(=O)c3ccc(OCC(F)(F)F)cc3C(F)(F)F)CN2C(=O)C2(C(F)(F)F)CC2)CC1 [Example 237] ? ≥ 25 µM

Now consider N#CC1(NC(=O)[C@@H]2C[C@@H](S(=O)(=O)c3ccccc3Cl)CN2C=O)CC1 [Example 78] and answer again. ≥ 25 µM
